Cited source: PubChem BioAssay (EPA / NIEHS)

- Read-out: ABC Transporter (ABCC2), ABCC2 (gene 1244)
- ASSAY_NOTES: LTEA_HepaRG_ABCC2: Life Technologies and Expression Analysis (LTEA) Assay for ABC Transporter (ABCC2) using HepaRG (AID 2283464)
- COND: mRNA level, 48 h; actives raise or lower the signal
Active and inactive are the calls of the source. Rule for the calls: active = hit-call score of the fitted dose curve at least 0.9, where 1 is the maximum; inactive = score below 0.9.
Possible outcomes: active, inactive

INSERT INTO results (molecule, category) VALUES
  ('CCCC(=NOCC)C1=C(O)CC(CC(C)SCC)CC1=O (stereo not given)', 'inactive'),
  ('CO/N=C(/C1=NOCCO1)c1ccccc1Oc1ncnc(Oc2ccccc2Cl)c1F', 'active'),
  ('N#Cc1c(Cl)cccc1Cl', 'inactive'),
  ('CC1(C)C(C(=O)OC(C#N)c2cccc(Oc3ccccc3)c2)C1(C)C (stereo not given)', 'inactive'),
  ('OC(c1ccc(Cl)cc1)(c1ccc(Cl)cc1)C(Cl)(Cl)Cl', 'inactive'),
  ('O=P(O)(O)CCCl', 'inactive'),
  ('CN/C(=N\[N+](=O)[O-])NCc1cnc(Cl)s1', 'inactive'),
  ('CN=C=S', 'inactive'),
  ('CC1(C)CON(Cc2ccccc2Cl)C1=O', 'active'),
  ('CCOP(=O)(OCC)Oc1nc(Cl)c(Cl)cc1Cl', 'active');
